Test system: NCI-H322M lung
Test: NCI-60 one-dose screen, 48 h
Conditions: 10 µM unless noted
Protocol: Growth inhibition of the NCI-H322M human Non-Small Cell Lung tumor cell line is measured as a screen for anti-cancer activity. Cells are grown in 96 well plates and exposed to the test compound for 48 hours. Compounds are tested at a single concentration, which is 10^-5 M for most compounds. The reported endpoint is percent growth (GI% or GIPRCNT), where numbers from 0 - 100% represent growth inhibition, and numbers from -100% - 0 represent cell death. […]
About 83,000 compounds went through this panel and 20% of them were active in at least one assay; those are over-represented in the sample as a whole. The source made the active and inactive calls. Rule for the calls: active = growth percent below 10; inactive = the rest.
Form entry, call: pick from active, inactive

Recorded results for 5 compounds are shown here.
| compound | classification |
| --- | --- |
| CCN(CC)CCCCNc1c2ccc(Cl)cc2nc2ccc(OC)cc12 | active |
| Cc1cc(C)nc(SC2=C(Nc3cccc(Cl)c3)C(=O)N(Cc3ccccc3)C2=O)n1 | inactive |
| Cn1cc(C(=O)c2nc(-c3c[nH]c4ccc(F)cc34)no2)c2cc(F)ccc21 | inactive |
| COc1cc2c(cc1O)CC[C@@H]1[C@@H]2CC[C@]2(C)[C@@H](NCCN(C)C)CC[C@@H]12 | active |
| CCCCCC(=O)Oc1ccc(/C(=C(\C)c2ccc(OC)cc2)c2ccc(OCCN3CCCCC3)cc2)cc1 | inactive |

## Task What outcome does the record of this test show for Cc1nc2ccccc2n1C(=O)C[C@@H]1NC(=S)NC1=O ?
## Result inactive

## Task Each compound tested received a call. Report the one for COc1ccc2nc(NC(=O)CSc3nnc4n3S(=O)(=O)c3ccccc3N4c3ccccc3)sc2c1 .
## Result inactive

## Task What is the recorded call for this compound in the test? C=C(C)[C@@H]1CC[C@]2(C(N)=O)CC[C@]3(C)[C@H](CC[C@@H]4[C@@]5(C)C/C(=C/c6ccco6)C(=O)C(C)(C)[C@@H]5CC[C@]43C)[C@@H]12
## Result inactive

## Task Assay result, entry C#Cc1cccc(NC(=O)c2ccccc2NC(=O)C=C)c1 — outcome?
## Result inactive

## Task What was the test verdict on Oc1ccccc1-c1nnc(CNc2ccc(Cl)cc2)o1 ?
## Result inactive

## Task What call does the record list for CC(C)(O)c1cn(CCCCN2C(=O)C(=O)c3ccccc32)nn1 ?
## Result inactive

## Task Could you kindly confirm the outcome this assay logged for COc1cc(/C=C/c2cc(O)c3cc(C(C)=O)c(=O)oc3c2)cc2c1O[C@]1(C)CC[C@@H](O)C(C)(C)[C@H]1C2 ?
## Result inactive

## Task Tell me the assay call for O=C(COc1ccc(/C=C2\CSc3ccccc3C2=O)cc1)Nc1nccs1 please.
## Result inactive

## Task Lab log entry: Clc1ccc2c(NCCNc3nc(N4CCCCC4)nc4ccccc34)ccnc2c1 — outcome as called in the assay?
## Result active

## Task What did this assay record as the result for Cn1cc(-c2nonc2-c2c[nH]c3ccc(F)cc23)c2cccnc21 ?
## Result inactive

## Task Called result for CCOC(=O)C(C)(C#N)C1C=CCCC1 (centres undefined)
## Result inactive

## Task Hi, sorry to bother you, what did the test record for CC(=O)O[C@H]1C(=O)[C@@]2(C)[C@H]([C@H](OC(=O)c3ccccc3)[C@]3(O)C[C@H](OC(=O)[C@H](OC(=O)CCC(=O)OC4CCC(S/N=C(N)/N=C(\N)N(C)C)CC4)[C@@H](NC(=O)c4ccccc4)c4ccccc4)C(C)=C1C3(C)C)[C@]1(OC(C)=O)CO[C@@H]1C[C@@H]2O (some centres undefined) ?
## Result inactive

## Task Give the logged outcome of this assay for the following compound: CC(=O)Nc1ccc(-n2c(O)c(/C=N/NC(=O)Cc3ccccc3Nc3c(Cl)cccc3Cl)sc2=S)cc1
## Result inactive

## Task Entry Cc1cc(N2CCN(c3ccnc4cc(Cl)ccc34)CC2)nc(NC2CCCCC2)n1 : call = ?
## Result inactive

Data provenance is PubChem BioAssay (NCI).
